Hey, just so you know, these numbers are from ChEMBL document CHEMBL5665443.

Listing of entries alongside the reported inhibition.
- assayedTarget: Adenine DNA glycosylase (Homo sapiens) (UniProt Q9UIF7);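 note: human MUTYH activity read as 594 nm fluorescence from cleavage and release of a quenched DNA duplex, coupled with APE1 for strand incision, lower signal meaning inhibition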
- Sequence (Q9UIF7 whole entry): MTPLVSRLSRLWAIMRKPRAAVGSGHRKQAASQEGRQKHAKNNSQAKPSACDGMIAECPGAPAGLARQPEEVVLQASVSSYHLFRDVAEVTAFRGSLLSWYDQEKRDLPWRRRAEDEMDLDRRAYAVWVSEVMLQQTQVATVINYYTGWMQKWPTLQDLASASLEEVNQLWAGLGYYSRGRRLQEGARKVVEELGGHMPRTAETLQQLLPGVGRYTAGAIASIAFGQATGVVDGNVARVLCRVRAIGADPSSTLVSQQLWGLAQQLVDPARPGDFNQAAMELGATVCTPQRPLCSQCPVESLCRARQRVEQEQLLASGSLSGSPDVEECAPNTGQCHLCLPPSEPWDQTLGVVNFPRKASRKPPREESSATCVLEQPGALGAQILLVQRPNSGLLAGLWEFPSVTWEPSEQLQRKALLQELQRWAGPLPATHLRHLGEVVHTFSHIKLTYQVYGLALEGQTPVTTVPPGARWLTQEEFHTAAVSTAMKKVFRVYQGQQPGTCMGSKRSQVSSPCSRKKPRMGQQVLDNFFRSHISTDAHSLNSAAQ
- testContext: Compound Concentration 10.0 uM, Hit No
- Description: Inhibition of MUTYH by quantifying inhibition of MUTYH-mediated cleavage and dissociation of quenched duplex DNA oligonucleotides, measured as fluorescence at 594 nm. To generate a functional strand incision and increase turn-over this assay is coupled to APE1.
# number only, unit % dropped from output

Cc1onc(-c2ccc(F)cc2)c1COc1ccc(C(=O)N2CCS(=O)(=O)CC2)cn1 = 32

Q: Kindly state the measured inhibition obtained for C[C@@H](CN1CCC(Cc2ccccc2)CC1)[C@@H](O)c1ccc(O)cc1 with Adenine DNA glycosylase (Homo sapiens) (UniProt Q9UIF7).
A: -7.47

Q: Kindly state the measured inhibition obtained for COc1cc(C(=O)NS(=O)(=O)c2ccccc2C)ccc1Cc1cn(C)c2ccc(NC(=O)OC3CCCC3)cc12 with Adenine DNA glycosylase (Homo sapiens) (UniProt Q9UIF7).
A: 50.6

Q: Kindly state the measured inhibition obtained for COc1ccccc1S(=O)(=O)Nc1ccc(C)cc1Oc1ccc2c(N)nccc2c1 with Adenine DNA glycosylase (Homo sapiens) (UniProt Q9UIF7).
A: 3.09

Q: Kindly state the measured inhibition obtained for CCOCCn1cc(C(=O)Nc2ccc(-n3nc(-c4cccnc4)cc3C(F)(F)F)cn2)ccc1=O with Adenine DNA glycosylase (Homo sapiens) (UniProt Q9UIF7).
A: -6.66

Q: Kindly state the measured inhibition obtained for COc1cc(OC)cc(C(=O)NNC(=O)Nc2cccc3ccccc23)c1 with Adenine DNA glycosylase (Homo sapiens) (UniProt Q9UIF7).
A: 2.2

Q: Kindly state the measured inhibition obtained for CCc1cccc(CC)c1NC(=O)c1nn(C)c2c1CCc1cnc(Nc3ccc(C(=O)NC4CCN(C)CC4)cc3OC(F)(F)F)nc1-2 with Adenine DNA glycosylase (Homo sapiens) (UniProt Q9UIF7).
A: -6.43

Q: Kindly state the measured inhibition obtained for CCOC(=O)N1CCC(CN(Cc2ccc(Cl)cc2)Cc2ccc([N+](=O)[O-])s2)C1 (centres undefined) with Adenine DNA glycosylase (Homo sapiens) (UniProt Q9UIF7).
A: -8.96

Q: Kindly state the measured inhibition obtained for CN1CCN(c2cnc3c(C4CCN(C(=O)c5ccc(OC(F)(F)F)cc5N)CC4)ncnc3c2)CC1 with Adenine DNA glycosylase (Homo sapiens) (UniProt Q9UIF7).
A: 2.58

---

- assayedTarget: Single-strand selective monofunctional uracil DNA glycosylase (Homo sapiens);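 note: enzymatic SMUG1 assay coupled with APE1, reading fluorescence at 594 nm released when a quenched double-stranded DNA oligonucleotide substrate is cleaved and separated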
- testContext: Compound Concentration 10.0 uM, Hit No
- Description: Inhibition of SMUG1 by quantifying inhibition of SMUG1-mediated cleavage and dissociation of quenched duplex DNA oligonucleotides, measured as fluorescence at 594 nm. To generate a functional strand incision and increase turn-over this assay is coupled to APE1.
observable: inhibition (%)
# number only, unit % dropped from output

Q: # inhibition lookup, item CCCn1c(=O)c2[nH]c(C3CCCC3)nc2n(CCC)c1=O
A: -9.38

Q: # inhibition lookup, item CC(=O)c1ccc2c(c1)[C@@H]1C=CC[C@@H]1[C@H](c1cc3c(cc1Br)OCO3)N2
A: 5.25

Q: # inhibition lookup, item O=C(N[C@H]1CN2CCC1CC2)c1ccc(Cl)cc1
A: 3.71

Q: # inhibition lookup, item CN1C(=O)[C@@H](NC(=O)c2cc3ccccc3[nH]2)N=C(c2ccccc2)c2ccccc21
A: -0.954

Q: # inhibition lookup, item Cc1oc2ccccc2c1Cc1cc(I)c(OCC(=O)O)c(I)c1
A: 47.4

Q: # inhibition lookup, item Cc1cnc(CNCC2(F)CCN(C(=O)c3ccc(F)c(Cl)c3)CC2)nc1
A: -8.17

Q: # inhibition lookup, item CNC[C@H](O)c1cccc(O)c1
A: -2.99

Q: # inhibition lookup, item O=C(Nc1cccnc1)c1cc(-c2ccnc(F)c2)ccc1OCc1ccccc1
A: 25.3

Q: # inhibition lookup, item CC(C)C[C@H](NC(=O)c1cc2ccccc2s1)C(=O)N1CCN(C(=O)[C@H](CO)NS(=O)(=O)c2ccc(Cl)cc2Cl)CC1
A: 17.8

Q: # inhibition lookup, item Cc1cccc(C2CN(C)CCc3c2cc(O)c(O)c3Cl)c1 (stereo not given)
A: -3.57

Q: # inhibition lookup, item CNC(=O)c1cc(C(=O)N[C@H]2[C@@H]3COC[C@@H]32)cc2c1O[C@@H](CF)[C@@H]2c1ccccc1
A: 8.28

---

- assayedTarget: Endonuclease III-like protein 1 (Homo sapiens);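 note: enzyme assay tracking NTHL1 cutting and release of a quenched double-stranded DNA oligo substrate, read as fluorescence at 594 nm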
- Sequence (whole entry): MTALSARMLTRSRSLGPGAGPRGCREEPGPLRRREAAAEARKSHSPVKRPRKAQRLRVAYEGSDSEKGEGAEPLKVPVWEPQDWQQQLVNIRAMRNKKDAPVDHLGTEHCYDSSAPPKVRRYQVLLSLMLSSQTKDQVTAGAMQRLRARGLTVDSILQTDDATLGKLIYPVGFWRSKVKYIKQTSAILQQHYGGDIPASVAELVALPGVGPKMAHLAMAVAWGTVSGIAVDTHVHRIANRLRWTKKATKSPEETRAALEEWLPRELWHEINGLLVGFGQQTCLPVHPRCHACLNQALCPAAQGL
- testContext: Compound Concentration 10.0 uM, Hit No
- Description: Inhibition of NTHL1 by quantifying inhibition of NTHL1-mediated cleavage and dissociation of quenched duplex DNA oligonucleotides, measured as fluorescence at 594 nm.
Listing of entries alongside the reported inhibition.
# number only, unit % dropped from output

Some compounds with recorded inhibition:
O=C(O)[C@H]1O[C@H](OP(=O)(O)OP(=O)(O)OC[C@H]2O[C@@H](n3ccc(=O)[nH]c3=O)[C@H](O)[C@@H]2O)[C@H](O)[C@@H](O)[C@@H]1O = 15.4
O=S1(=O)c2cccc3cccc(c23)N1CCCN1CCN(c2ccc(F)cc2)CC1 = 18.1
Cn1cnc2c(F)c(Nc3ccc(Br)cc3Cl)c(C(=O)NOCCO)cc21 = -8.28

Q: Kindly state the measured inhibition obtained for C=C1/C(=C\C=C2/CCC[C@]3(C)[C@@H]([C@H](C)/C=C/[C@H](C)C(C)C)CC[C@@H]23)C[C@@H](O)C[C@@H]1O with Endonuclease III-like protein 1 (Homo sapiens).
A: 0.685

---

- assayedTarget: Uracil-DNA glycosylase (Homo sapiens) (UniProt P13051);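 note: UNG excision on a quenched double-stranded DNA oligo probe, with APE1 added for strand incision and turnover, read as fluorescence at 594 nm as strands separate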
- Sequence (P13051 whole entry): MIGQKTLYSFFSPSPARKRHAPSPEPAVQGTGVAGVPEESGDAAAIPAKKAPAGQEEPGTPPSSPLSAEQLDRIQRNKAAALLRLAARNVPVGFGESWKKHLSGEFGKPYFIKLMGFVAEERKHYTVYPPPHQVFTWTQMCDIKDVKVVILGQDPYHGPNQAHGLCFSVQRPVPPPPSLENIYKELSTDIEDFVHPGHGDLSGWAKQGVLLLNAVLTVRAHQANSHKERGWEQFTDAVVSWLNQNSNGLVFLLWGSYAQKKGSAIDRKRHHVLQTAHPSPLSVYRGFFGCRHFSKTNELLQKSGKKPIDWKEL
- testContext: Compound Concentration 10.0 uM, Hit No
- Description: Inhibition of UNG by quantifying inhibition of UNG-mediated cleavage and dissociation of quenched duplex DNA oligonucleotides, measured as fluorescence at 594 nm. To generate a functional strand incision and increase turn-over this assay is coupled to APE1.
observable: inhibition (%)
# number only, unit % dropped from output

OC1(c2ccc(Cl)cc2)CCN(Cc2c[nH]c3ccccc23)CC1 = -8.06
Cc1cc(NC(=O)c2cccc(S(F)(F)(F)(F)F)c2)cc(-n2ccn3nc(-c4cccnc4)cc23)c1 = 0.948
CN(C(=O)c1cnn2cccnc12)c1cc2c(cc1N1CCOCC1)C(=O)N(C[C@@H](F)C(C)(C)O)C2 = 0.621
Cc1cccc(NC(=O)CN2CCC(c3ccccn3)CC2)c1 = -6.98

Note: attention shifts to another entry.
Q: Kindly state the measured inhibition obtained for N#Cc1c[nH]c2c(C(=O)N3CCN(CCc4ccc(F)cc4)CC3)cccc12 with Uracil-DNA glycosylase (Homo sapiens) (UniProt P13051).
A: -9.6

---

- assayedTarget: G/T mismatch-specific thymine DNA glycosylase (Homo sapiens) (UniProt Q13569);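 note: human TDG cleavage of quenched duplex DNA oligonucleotides coupled to APE1, strand release read as fluorescence at 594 nm, inhibition of TDG activity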
- Sequence (Q13569 whole entry): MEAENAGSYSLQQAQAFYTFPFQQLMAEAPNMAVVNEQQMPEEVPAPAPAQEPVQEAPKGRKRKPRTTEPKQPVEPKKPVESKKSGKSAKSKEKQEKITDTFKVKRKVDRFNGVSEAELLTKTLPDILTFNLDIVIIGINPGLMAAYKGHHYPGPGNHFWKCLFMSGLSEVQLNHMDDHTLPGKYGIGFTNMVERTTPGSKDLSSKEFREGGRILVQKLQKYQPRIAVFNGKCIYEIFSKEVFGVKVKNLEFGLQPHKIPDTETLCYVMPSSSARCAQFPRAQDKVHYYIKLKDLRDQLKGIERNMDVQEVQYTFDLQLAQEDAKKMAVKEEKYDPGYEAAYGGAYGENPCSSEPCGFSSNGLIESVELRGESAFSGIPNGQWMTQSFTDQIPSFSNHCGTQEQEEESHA
- testContext: Compound Concentration 10.0 uM, Hit No
- Description: Inhibition of TDG by quantifying inhibition of TDG-mediated cleavage and dissociation of quenched duplex DNA oligonucleotides, measured as fluorescence at 594 nm. To generate a functional strand incision and increase turn-over this assay is coupled to APE1.
Listing of entries alongside the reported inhibition.
# number only, unit % dropped from output

CC(C)NCC(O)COc1cccc2[nH]ccc12 (stereo not given) = 3.97
Cc1cccc(CN2CCN(C(c3ccccc3)c3ccc(Cl)cc3)CC2)c1 (stereo not given) = 31.2
COc1cc(OC)c(NC(=O)Nc2cc(C)on2)cc1Cl = -8.88
Cn1ncnc1COc1nn2c(-c3c(F)cccc3F)nnc2cc1C1CCC1 = 15.4
CCC[C@H]1CNCc2c1[nH]c(=O)c(C#N)c2N1CCC2(CC1)CC2 = 100

Q: # inhibition lookup, item O=C(c1ccc(F)c(F)c1Nc1ccc(I)cc1F)N1CC(O)([C@@H]2CCCCN2)C1
A: 45

Q: # inhibition lookup, item CC(C)C[C@H](NC(=O)N1CCCCCC1)C(=O)N[C@H](Cc1cn(C)c2ccccc12)C(=O)N[C@H](Cc1ccccn1)C(=O)O
A: 3.66

Q: # inhibition lookup, item Cc1c(N2CCCC2)nc2ccc(Br)cc2c1C(=O)NC[C@H](CCC(=O)O)c1ccccc1Cl
A: 54

Q: # inhibition lookup, item CCOC(=O)c1c(C)[nH]c2ccc3c(c12)CN1CCc2cc(OC)ccc2C1O3 (stereo not given)
A: 29.8

Q: # inhibition lookup, item c1ccc(Cn2c(N3CCNCC3)nc3ccccc32)cc1
A: -3.94

---

Listing of entries alongside the reported inhibition.
- assayedTarget: Methyl-CpG-binding domain protein 4 (Homo sapiens) (UniProt O95243);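 note: MBD4 activity read as fluorescence at 594 nm from cleavage and release of a quenched duplex DNA oligonucleotide, with APE1 coupled to incise the strand and raise turnover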
- Sequence (O95243 whole entry, the tested form may be a part): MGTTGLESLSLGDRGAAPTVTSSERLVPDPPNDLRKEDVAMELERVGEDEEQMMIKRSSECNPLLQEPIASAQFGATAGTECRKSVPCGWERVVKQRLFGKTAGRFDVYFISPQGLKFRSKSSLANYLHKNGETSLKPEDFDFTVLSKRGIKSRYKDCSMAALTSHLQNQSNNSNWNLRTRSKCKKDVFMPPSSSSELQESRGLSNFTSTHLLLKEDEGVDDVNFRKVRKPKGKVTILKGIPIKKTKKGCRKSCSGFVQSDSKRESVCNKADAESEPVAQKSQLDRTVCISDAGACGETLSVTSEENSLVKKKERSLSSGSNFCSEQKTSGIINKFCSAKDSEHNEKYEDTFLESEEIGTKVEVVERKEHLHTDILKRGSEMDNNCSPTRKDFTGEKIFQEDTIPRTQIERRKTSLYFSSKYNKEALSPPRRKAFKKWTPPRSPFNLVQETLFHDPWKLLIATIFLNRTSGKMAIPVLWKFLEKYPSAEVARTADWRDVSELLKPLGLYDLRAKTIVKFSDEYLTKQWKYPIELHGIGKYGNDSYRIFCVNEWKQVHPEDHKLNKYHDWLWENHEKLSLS
- testContext: Compound Concentration 10.0 uM, Hit No
- Description: Inhibition of MBD4 by quantifying inhibition of MBD4-mediated cleavage and dissociation of quenched duplex DNA oligonucleotides, measured as fluorescence at 594 nm. To generate a functional strand incision and increase turn-over this assay is coupled to APE1.
Where a SMILES comes first, the peptide text is derived from it.
Put your answer as a value accompanied by its unit after it.

Q: # inhibition lookup, item C[C@H](NC(=O)CNC(=O)c1cccc(Cl)c1)c1ccccc1
A: -8.91%

Q: # inhibition lookup, item Cc1cc(NC(=O)Nc2ccc(N(C)C)cc2)c2cc(F)cc(F)c2n1
A: 6.31%

Q: # inhibition lookup, item O=c1ccc2c(OCCCCc3ccccc3)c3ccoc3cc2o1
A: -4.82%

Q: # inhibition lookup, item Cc1cccc(F)c1C(=O)Nc1cnc(-c2cc3c(cc2Cl)OC(F)(F)O3)cn1
A: 7.48%

Q: # inhibition lookup, item CC(C)C[C@@H]1NC(=O)[C@@H](C(C)C)NC(=O)[C@@H]2CCCN2C(=O)[C@@H](CC(=O)O)NC(=O)[C@@H](Cc2c[nH]c3ccccc23)NC1=O (HELM PEPTIDE1{L.[dW].[dD].P.[dV]}$PEPTIDE1,PEPTIDE1,1:R1-5:R2$$$V2.0)
A: -8.68%

Q: # inhibition lookup, item Cc1cc(Cn2nnc3c(-c4ccco4)nc(N)nc32)ccc1N
A: 4.16%
